molecules and their reported inhibition at 100 µM
Test system: HepG2 cells
test-summary: HepG2 assay: 14C 2-deoxy-D-glucose transport into HepG2 cells
Format: cell-based
condition-info: Homo sapiens, test compound 100 μM
Method: For measurement of ^14C 2-deoxy-D-glucose transport into HepG2 cells, cells were seeded in collagen treated 96-well plates (Cytostar-T Plates Perkin Elmer, 40.000 cells/200 μ/well) in medium complete (MEM W/GLUT-I, EARLES (Gibco #41090) /NEAA/PS/10% FCS) and grown for 48 hours. […] Plates were measured in a 96-well Wallac Microbeta device. […]
Give just the numeric value; % need not be written.

Worked examples, 3 molecules total:
molecule: C=CCN1CCN(C(=O)[C@H]2OC(O)[C@H](O)[C@@H](O)[C@@H]2O)CC1 (stereo partly shown) [Example 28]
test-system: HepG2 cells
quantity-unit: %
inhibition at 100 µM: 9.95
//
molecule: CC(=O)O[C@@H]1OC(CN2CCN(Cc3ccc4c(c3)OCO4)CC2)=C[C@H](OC(C)=O)[C@H]1OC(C)=O [Example 47]
test-system: HepG2 cells
quantity-unit: %
inhibition at 100 µM: 13.8
//
molecule: O=[N+]([O-])c1ccc(NCc2cn([C@@H]3O[C@H](CO)[C@@H](O)[C@H](O)[C@H]3O)nn2)c2nonc12 [Example 88]
test-system: HepG2 cells
quantity-unit: %
inhibition at 100 µM: 31.4

Query :: If you can, please state the reported inhibition at 100 µM value of O=C([C@H]1OC(O)[C@H](O)[C@@H](O)[C@@H]1O)N1CCN(Cc2ccc3c(c2)OCO3)CC1 (stereo partly shown) [Example 40] .
Result :: 10.1
